Source: patent US20250236663A1

system: Recombinant human FAM19A5 protein (His-tagged) (human) (UniProt Q7Z5A7)
assay.method.text: ELISA, N'-Term His
Design: unit not given here
experimental.readout: Bmax
Reply: number alone, nothing else.

**Q:** Query (binder): Anti-FAM19A5 (P2-F07) (antibody, V domains shown) VH: QSLEESGGRLVTPGTPLTLTCTASGFSLSSYYMNWVRQAPGKGLEWIGIIYPSGTTYYAGWAKGRFTISKTSTTVDLKITSPTSEDTATYFCARTVSGYFDIWGPGTLVTVSL VL: ELDLTQTPPSLSASVGGTVTINCLASEDIYSALAWYQQKPGKPPTLLISGTSNLESGVPPRFSGSGSGTDYTLTIGGVQAEDAATYFCQGYSSYPLTFGAGTNVEIK ; field requested: Bmax
**A:** 0.134
